PROTOCOL_SUMMARY: In vivo plasma/brain tissue distribution study in male SD rats
CONDITIONS_USED: male, SD, rat, 10 mg/kg, oral 10 mpk, brain tissue, read-out: Tmax, Brain tissue
MEASURED_PROPERTY: Tmax
A complete answer gives the number followed by the unit.

Query :: Look up Tmax for this molecule: C[C@H](Nc1ccc2c(c1)OCCn1cc(N3C(=O)OC[C@H]3C(F)F)nc1-2)C(N)=O [GDC-0077]
Result :: 1 h

====

ASSAY_SYSTEM: PI3K β (Homo sapiens, UniProt P42338)
Sequence (P42338 whole entry): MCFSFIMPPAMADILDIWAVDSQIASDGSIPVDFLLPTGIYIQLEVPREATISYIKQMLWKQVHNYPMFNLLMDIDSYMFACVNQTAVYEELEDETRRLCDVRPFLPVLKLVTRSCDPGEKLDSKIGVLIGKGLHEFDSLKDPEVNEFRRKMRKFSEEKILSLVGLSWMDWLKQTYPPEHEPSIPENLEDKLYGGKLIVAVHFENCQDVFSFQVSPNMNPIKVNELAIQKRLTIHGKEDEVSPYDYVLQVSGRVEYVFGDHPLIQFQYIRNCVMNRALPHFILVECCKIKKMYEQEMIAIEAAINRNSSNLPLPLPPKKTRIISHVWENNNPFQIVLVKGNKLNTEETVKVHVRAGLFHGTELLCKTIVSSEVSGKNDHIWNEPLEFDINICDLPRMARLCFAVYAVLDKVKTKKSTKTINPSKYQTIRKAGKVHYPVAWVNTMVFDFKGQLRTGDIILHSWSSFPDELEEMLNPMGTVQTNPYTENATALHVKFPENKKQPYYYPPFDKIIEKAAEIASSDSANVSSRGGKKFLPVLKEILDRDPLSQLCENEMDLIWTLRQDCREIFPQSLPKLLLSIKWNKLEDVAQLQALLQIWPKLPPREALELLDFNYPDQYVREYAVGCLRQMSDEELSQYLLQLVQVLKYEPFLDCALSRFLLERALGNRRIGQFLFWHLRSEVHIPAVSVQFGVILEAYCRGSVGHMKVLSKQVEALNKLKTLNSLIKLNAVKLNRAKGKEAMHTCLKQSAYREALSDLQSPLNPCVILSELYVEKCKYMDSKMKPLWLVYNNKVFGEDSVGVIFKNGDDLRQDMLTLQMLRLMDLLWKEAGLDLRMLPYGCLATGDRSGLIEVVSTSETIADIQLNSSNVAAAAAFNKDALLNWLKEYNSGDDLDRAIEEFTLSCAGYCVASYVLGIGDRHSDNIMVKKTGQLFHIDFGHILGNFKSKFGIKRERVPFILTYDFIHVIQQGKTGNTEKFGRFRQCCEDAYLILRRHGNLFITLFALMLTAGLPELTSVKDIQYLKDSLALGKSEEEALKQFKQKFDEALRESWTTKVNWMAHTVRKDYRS
Sequence (P27986 whole entry partner): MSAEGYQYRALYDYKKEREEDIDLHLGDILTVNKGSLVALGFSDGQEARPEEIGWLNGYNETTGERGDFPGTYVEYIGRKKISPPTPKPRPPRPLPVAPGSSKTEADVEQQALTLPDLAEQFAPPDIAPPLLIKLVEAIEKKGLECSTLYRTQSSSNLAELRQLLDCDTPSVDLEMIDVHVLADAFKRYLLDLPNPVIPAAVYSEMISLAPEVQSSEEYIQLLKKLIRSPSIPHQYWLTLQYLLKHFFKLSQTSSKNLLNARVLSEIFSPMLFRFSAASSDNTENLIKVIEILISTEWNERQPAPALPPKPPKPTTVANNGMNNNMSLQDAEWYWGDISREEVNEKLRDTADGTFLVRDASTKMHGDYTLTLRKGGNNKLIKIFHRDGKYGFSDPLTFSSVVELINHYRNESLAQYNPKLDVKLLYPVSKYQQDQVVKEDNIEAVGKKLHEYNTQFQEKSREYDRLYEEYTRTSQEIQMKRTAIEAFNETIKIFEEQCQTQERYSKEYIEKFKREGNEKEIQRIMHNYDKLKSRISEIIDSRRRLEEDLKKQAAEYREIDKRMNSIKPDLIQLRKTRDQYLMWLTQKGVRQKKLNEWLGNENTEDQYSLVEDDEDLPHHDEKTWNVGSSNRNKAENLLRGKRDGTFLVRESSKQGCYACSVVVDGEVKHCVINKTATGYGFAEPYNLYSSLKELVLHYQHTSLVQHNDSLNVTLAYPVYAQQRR
MEASURED_PROPERTY: pIC50
Schema: pIC50 number; meaning minus log10 of the concentration expressed in molar units.

Query :: Give the reported pIC50 for C[C@H](Nc1ccc2c(c1)OCCn1cc(N3C(=O)OC[C@H]3C(F)F)nc1-2)C(N)=O [GDC-0077] (system: PI3K β (Homo sapiens, UniProt P42338)).
Result :: 6.07

====

PROTOCOL_SUMMARY: In vivo plasma/brain tissue distribution study in male SD rats
CONDITIONS_USED: male, SD, rat, 10 mg/kg, oral 10 mpk, cerebrospinal fluid, read-out: Tmax, Cerebrospinal fluid
MEASURED_PROPERTY: Tmax (h)
Express your answer in h, writing the number without its unit.

Query :: Look up Tmax for this molecule: C[C@H](Nc1ccc2c(c1)OCCn1cc(N3C(=O)OC[C@H]3C(F)F)nc1-2)C(N)=O
Result :: 1

====

PROTOCOL_SUMMARY: In vivo DMPK study in male CD-1 mice
CONDITIONS_USED: male, CD-1, mouse, plasma, 3 mg/kg oral administration
MEASURED_PROPERTY: Cmax (nM)
Express your answer in nM, writing the number without its unit.

Query :: Look up Cmax for this compound: C[C@H](Nc1ccc2c(c1)OCCn1cc(N3C(=O)OC[C@H]3C(F)F)nc1-2)C(N)=O
Result :: 1760

====

PROTOCOL_SUMMARY: In vivo DMPK study in male CD-1 mice
CONDITIONS_USED: male, CD-1, mouse, plasma, 3 mg/kg oral vs 1 mg/kg intravenous, read-out: Oral F %
From the text: Experimental purpose: Male CD-1 mice were used as test animals to determine plasma concentrations of compounds after a single administration and evaluate pharmacokinetic behavior. Experimental operation: 8 healthy adult male CD-1 mice were selected, 4 for the intravenous injection group and 4 for the oral administration group. The compound to be tested was mixed with an appropriate amount of the solvent (DMSO/solvent/water (10:10:80 v/v/v)) for the intravenous injection group. […]
MEASURED_PROPERTY: bioavailability (%)
Express your answer in %, writing the number without its unit.

Query :: Look up bioavailability for this compound: C[C@H](Nc1ccc2c(c1)OCCn1cc(N3C(=O)OC[C@H]3C(F)F)nc1-2)C(N)=O
Result :: 50

====

PROTOCOL_SUMMARY: In vivo plasma/brain tissue distribution study in male SD rats
CONDITIONS_USED: male, SD, rat, 10 mg/kg, oral 10 mpk, plasma, read-out: Cmax, Plasma
MEASURED_PROPERTY: Cmax (nM)
Express your answer in nM, writing the number without its unit.

Query :: Look up Cmax for this compound: C[C@H](Nc1ccc2c(c1)OCCn1cc(N3C(=O)OC[C@H]3C(F)F)nc1-2)C(N)=O
Result :: 1520

====

ASSAY_SYSTEM: PI3K α (Homo sapiens)
Sequence (P42336 whole entry): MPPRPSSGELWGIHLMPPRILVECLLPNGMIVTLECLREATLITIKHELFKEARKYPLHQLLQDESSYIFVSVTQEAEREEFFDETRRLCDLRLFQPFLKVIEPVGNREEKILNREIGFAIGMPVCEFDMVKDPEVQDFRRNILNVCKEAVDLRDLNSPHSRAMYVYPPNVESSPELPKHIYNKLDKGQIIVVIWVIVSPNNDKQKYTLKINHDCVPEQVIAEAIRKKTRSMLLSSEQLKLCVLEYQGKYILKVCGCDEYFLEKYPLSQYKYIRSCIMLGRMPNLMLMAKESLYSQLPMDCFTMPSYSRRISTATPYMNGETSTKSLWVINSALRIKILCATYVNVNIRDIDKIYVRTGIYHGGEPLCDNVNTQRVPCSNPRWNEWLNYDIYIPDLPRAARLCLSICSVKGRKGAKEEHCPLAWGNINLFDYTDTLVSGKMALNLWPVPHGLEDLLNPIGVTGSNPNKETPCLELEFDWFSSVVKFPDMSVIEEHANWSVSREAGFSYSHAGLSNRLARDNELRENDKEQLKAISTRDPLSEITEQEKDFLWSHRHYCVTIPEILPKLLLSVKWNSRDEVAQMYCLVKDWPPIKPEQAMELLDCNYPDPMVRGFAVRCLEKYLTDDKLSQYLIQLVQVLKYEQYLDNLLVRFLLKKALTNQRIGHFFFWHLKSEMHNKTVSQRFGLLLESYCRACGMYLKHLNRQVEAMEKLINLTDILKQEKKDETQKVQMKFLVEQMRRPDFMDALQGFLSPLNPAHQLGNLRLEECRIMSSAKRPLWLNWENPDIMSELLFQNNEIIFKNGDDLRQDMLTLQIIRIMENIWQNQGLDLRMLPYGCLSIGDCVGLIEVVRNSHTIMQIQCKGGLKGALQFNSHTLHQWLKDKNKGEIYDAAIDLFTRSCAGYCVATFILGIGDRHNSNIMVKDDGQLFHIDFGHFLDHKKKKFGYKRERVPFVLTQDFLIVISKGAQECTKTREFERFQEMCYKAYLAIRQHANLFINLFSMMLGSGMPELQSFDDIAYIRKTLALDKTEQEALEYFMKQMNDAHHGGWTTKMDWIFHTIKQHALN
Sequence (P27986 whole entry partner): as the sequence (P27986 whole entry partner) above
MEASURED_PROPERTY: pIC50
Schema: pIC50 number; meaning minus log10 of the concentration expressed in molar units.

Query :: Look up pIC50 for this molecule: C[C@H](Nc1ccc2c(c1)OCCn1cc(N3C(=O)OC[C@H]3C(F)F)nc1-2)C(N)=O [GDC-0077]
Result :: 9.12
